# Test system: MDA-MB-231
# experiment: MTT cell viability, MDA-MB-231
# Format: cell-based
# recorded_conditions: Homo sapiens, MDA-MB-231; 48 h, MTT, 1.25–160 μM; read-out: IC50 MDA-MB-231
pIC50: −log10 of the molar value.
measurement_type: pIC50

# smiles_input, endpoint_result
measured = [
    ("N#Cc1ccc(C(=O)N2CCN(S(=O)(=O)c3ccc(Cl)cc3)CC2)cc1", 4.07),
]

A = O=C(c1ccc(Cl)nc1)N1CCN(S(=O)(=O)c2ccc(Cl)cc2)CC1
B = CN(C)CCOc1ccc(C(=O)N2CCN(S(=O)(=O)c3ccc(Cl)cc3)CC2)cc1
Task: Which record would sort first by descending pIC50, A or B ? In your reply, give the label of the chosen option.
Result: B
(B: 4.21, A: 3.95)

* * *

# Tested on: MDA-MB-453
# experiment: MTT cell viability, MDA-MB-453
# Assay type: cell-based
# recorded_conditions: Homo sapiens, MDA-MB-453; 48 h, MTT, 1.25–160 μM; read-out: IC50 MDA-MB-453
pIC50: −log10 of the molar value.
measurement_type: pIC50

Sample answers from the record:
# molecule, pIC50
rows = [
    ("CN(C)Cc1ccc(N2CCN(S(=O)(=O)c3ccc(F)cc3)CC2)nc1 [Compound 11]", 3.96),
    ("CN(C)CCOc1ccc(C(=O)N2CCN(S(=O)(=O)c3ccc(Cl)cc3)CC2)cc1 [Compound 2]", 4.30),
    ("CN(C)CCOc1ccc(N2CCN(S(=O)(=O)c3ccc(Cl)cc3)CC2)cc1 [Compound 12]", 3.87),
    ("O=C(c1ccc(N2CCN(S(=O)(=O)c3ccc(Cl)cc3)CC2)nc1)N1CCCC1 [Compound 8]", 4.03),
]

P = O=C(c1ccc(-n2cnnn2)cc1)N1CCN(S(=O)(=O)c2ccc(Cl)cc2)CC1 [Compound 3]
Q = CN(C)Cc1ccc(N2CCN(S(=O)(=O)c3ccc(Cl)cc3)CC2)nc1 [Compound 10]
Task: Which has the smaller recorded pIC50, P or Q ? In your reply, give the label of the chosen option.
Result: P

Data origin, for the record: paper PMC11433764
